target: human Claudin 18.2 (hCLDN18.2) (human, UniProt P56856-2 1-261); assay: cell-based or functional assay

| Binder | ADCC Maximum lysis (%) |
| --- | --- |
| ch-229C9 (antibody, V domains shown, also called chimeric antibody of clone 229C9) VH: DVQLQESGPDLVKPSQSLSLICTVTGYSITSGYSWHWIRQFPGNKLEWMGYIHYSGGTNYNPSLKSRISFTRDTSKNQFFLQLNSVTTEDTATYYCARLERGNSFAYWGQGTLVTVSA VL: DIVMTQSPSSLTVTAGEKVTMSCKSTQSLLNSGNQKNYLTWYQQKPGQPPKLLIYWASTRESGVPDRFTGSGSGTDFTLTISSLQAEDLAVYYCQNDYFYPFTFGSGTKLEIK | 29.1 |
| ch-42D2 (antibody, V domains shown, also called chimeric antibody of clone 42D2) VH: EVQLQQSGPVLVKPGASVKMSCKASGYTFTDYQMNWVKQSHGKSLEWIGFINPYNGGIRYNQKFKGKATLTVDKSSSTAYMELNSLTSEDSAVYYCATIYFGNSFANWGQGTLVTVSA VL: DIVMTQSPSSLTVTAGEKVTMSCKPSQSLLNSGNQKNYLTWYQQKPGQPPRLLIYWASTRESGVPDRFTGSGSGTDFTLTISSVQAEDLAVYYCQNDYIYPYTFGGGTNLEIK | 39.1 |
| ch-241F7 (antibody, V domains shown, also called chimeric antibody of clone 241F7) VH: EVQLQQSGPELEKPGASVKISCKASGYSFTAYNMNWVRQRNGKSLEWIGNIDPYYGGTNYNQKFKGKATLTVDKSSSTAYMQLKSLTSEDSAVYFCATVYYGNSLIYWGQGTLVTVSA VL: DIVMTQSPSSLTVTAGEKVTMSCKSSQSLLNSGNQKNYLTWYQQKPGQPPKLLIYWASTRESGVPDRFTGTGSGTDFTLTISSVQAEDLAVYYCQNNYFYPLTFGAGTQLELK | 36.6 |
| ch-43F5 (antibody, V domains shown, also called chimeric antibody of clone 43F5) VH: QVQLQQPGAELVKPGTSVKLSCKASGYTFTSYWTHWVKQRPGQGLEWIGMIHPNSGSSNYNEKFKSKATLTVDKSSSTAYMQLRRLTSEDSAVYYCTRIHYGNAMDYWGQGTSVTVSS VL: DIVMTQSPSSLTVTAGEKVTMTCKSSQSLLNSGNQKNYLTWYQQKPGQPPKLLIYWASTRESGVPDRFTGSGSGTDFTLTISSVQAEDLAIYYCQNDYSFPFTFGSGTKLEIK | 48.5 |
| ch-239E9 (antibody, V domains shown, also called chimeric antibody of clone 239E9) VH: QVQLQQSGPELVRPGVSVKISCKGSSYTFTDYTMHWVKQSHAKSLEWIGFIGVYYGNTNYNQKFKGKATMTVDKSSSTAYMELARLTSEDSAVYYCARIGRGNAMDYWGQGTSVTVSS VL: DIVMTQSPSSLTVTAGEKVTMSCKSSQSLLNSGNQKNYLTWYQQKPGQPPKLLIYWASTRESGVPDRFTGSGSGTDFTLTISSVQAEDLAVYNCQNAYSYPFTFGSGTKLEIK | 36.7 |
